Kindly state %Inh for each of the entries shown.
System: HASPIN
Construct: gene GSG2
Conditions: concentration: 1 μM, replicates: in singlicate; n = 1;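 also: KINOMEscan kinase panel screen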
Reply numerically in %, unit not repeated.

Data request: Could you share which %Inh value was measured for Clc1cccc(-c2nc(Nc3ccncc3)c3ccccc3n2)c1 ?
Data returned: 50

Data request: // next record N#Cc1ccc(Oc2ccc(Nc3ncnc4cc[nH]c34)cc2Cl)cc1
Data returned: 0

Data request: // next record CN1c2ccc(-c3ccc(C(=O)NCCO)cc3)cc2-c2[nH]ncc2S1(=O)=O
Data returned: 21

Data request: // next record c1ccc(-c2ccc3c(-c4ccnc(Nc5ccc6c(c5)OCCO6)n4)cnn3n2)cc1
Data returned: 0

Data request: // next record Cc1ccc(O)cc1Nc1cc(C(F)(F)F)nc2ccc(-c3ccncc3)cc12
Data returned: 0

Data request: // next record Cc1ccc(NC(=O)c2cccc(C#N)c2)cc1-c1ccc(C(=O)Nc2ccncc2)cc1
Data returned: 0

Data request: // next record CS(=O)(=O)CCNCc1nc(-c2ccc3ncnc(Nc4ccc(OCc5cccc(F)c5)c(Cl)c4)c3c2)cs1.Cl
Data returned: 0

Data request: // next record COC(=O)c1c(-c2ccccc2)c2cc(Cl)ccc2c(=O)n1Cc1ccc(S(C)(=O)=O)cc1
Data returned: 27

Data request: // next record CSc1nn2c(=O)cc(N3CCOCC3)nc2n1Cc1cccc(Cl)c1Cl
Data returned: 0

Data request: // next record Cn1ccc2ncnc(Oc3ccc(NC(=O)Nc4cccnc4)c(Cl)c3)c21
Data returned: 0

Data request: // next record Fc1ccc(Nc2nccc(-c3c(-c4ccc(Cl)cc4)nn4ncccc34)n2)cc1F
Data returned: 37

Data request: // next record O=C(Nc1ccccc1F)NC1CCN(c2ccnc(Nc3ccc(F)cc3)n2)C1 (stereo not drawn)
Data returned: 0

Data request: // next record Nc1nc(-c2ccccn2)c(-c2ccnc3ccccc23)s1
Data returned: 26

Data request: // next record CCc1nc(-c2cccc(C)c2)c(-c2ccnc(NC(=O)c3ccccc3)c2)s1
Data returned: 0

Data request: // next record Nc1nc(-c2ccc3c(N)n[nH]c3c2)cc(N2CCC[C@@H](C(=O)Nc3ccccc3)C2)n1.O=C(O)C(F)(F)F.O=C(O)C(F)(F)F
Data returned: 0

Data request: // next record COc1ccc(Nc2nccc(N3CCC(NC(=O)c4cccc(NC(C)=O)c4)C3)n2)cc1 (stereo not drawn)
Data returned: 46

Data request: // next record O=C(Nc1n[nH]c2nc(-c3ccco3)c(Br)cc12)c1ccc(CN2CCCC2)cc1.O=C(O)[C@H](O)[C@@H](O)C(=O)O
Data returned: 15

Data request: // next record FC(F)(F)c1ccc(-c2cc(-c3c[nH]nc3-c3ccccn3)ccn2)cc1
Data returned: 14

====

Test system: FGFR4
Details: concentration: 1 μM, replicates: in singlicate; n = 1
Threshold rule: %Inh greater than or equal to 5% is fulfilled; below that, not fulfilled.

Data request: Hi team, for COc1cc2c(Nc3cccc(NC(=O)c4ccccc4)c3)ncnc2cc1OCCCN1CCOCC1 , is the recorded %Inh at or above 5%?
Data returned: not fulfilled

Data request: // next record Cc1ccc(NC(=O)c2cccc(C#N)c2)cc1-c1ccc(C(=O)Nc2ccncc2)cc1
Data returned: fulfilled

Data request: // next record c1ccc(-c2ccc3c(-c4ccnc(Nc5ccc6c(c5)OCCO6)n4)cnn3n2)cc1
Data returned: fulfilled

Data request: // next record CS(=O)(=O)CCNCc1nc(-c2ccc3ncnc(Nc4ccc(OCc5cccc(F)c5)c(Cl)c4)c3c2)cs1.Cl
Data returned: not fulfilled

Data request: // next record CSc1ccc(NC2=C(c3ccccc3Cl)C(=O)NC2=O)cc1
Data returned: fulfilled

Data request: // next record Cl.c1ccc(Cn2ccc3cc(Nc4ncnc5ccccc45)ccc32)cc1
Data returned: fulfilled

Data request: // next record CNc1nccc(-c2c(-c3ccc(F)cc3)ncn2CCCN2CCOCC2)n1
Data returned: not fulfilled

Data request: // next record CC(C)(C)c1ccc(-n2cnc3c(N)ncnc32)cc1
Data returned: fulfilled

Data request: // next record Cl.Fc1ccccc1COc1ccc(Nc2ncnc3ccc(-c4nnc(C(F)(F)F)o4)cc23)cc1Cl
Data returned: not fulfilled

Data request: // next record Nc1n[nH]c2nnc(-c3ccccc3)cc12
Data returned: fulfilled

Data request: // next record CCn1c(-c2ccncc2)nc2cnccc21
Data returned: fulfilled

Data request: // next record Clc1cc(Nc2ncnc3cc[nH]c23)ccc1OCc1ccccn1
Data returned: not fulfilled

Data request: // next record O=C(CCO)NCCn1ccc2ncnc(Nc3ccc(Oc4cccc(C(F)(F)F)c4)c(Cl)c3)c21
Data returned: not fulfilled

Data request: // next record Cn1ccc2ncnc(Oc3ccc(NC(=O)Nc4cccnc4)c(Cl)c3)c21
Data returned: not fulfilled

Data request: // next record Cl.Cl.c1ccc(-c2cc3ccncc3cc2OC2CCNCC2)cc1
Data returned: fulfilled

Data request: // next record Cn1cc(-c2ccc3c(c2)CCN3C(=O)Cc2cccc(C(F)(F)F)c2)c2c(N)ncnc21
Data returned: not fulfilled

Data request: // next record N#Cc1ccc(Oc2ccc(Nc3ncnc4cc[nH]c34)cc2Cl)cc1
Data returned: fulfilled

====

Kindly state %Inh for each of the entries shown.
Test system: TAK1
Construct: gene MAP3K7
Settings: concentration: 1 μM, replicates: in singlicate; n = 1
Reply numerically in %, unit not repeated.

Data request: Could you share which %Inh value was measured for CCc1nc(-c2cccc(C)c2)c(-c2ccnc(NC(=O)c3ccccc3)c2)s1 ?
Data returned: 35

Data request: // next record OCCOCCn1ccc2ncnc(Nc3ccc(Oc4cccc(Cl)c4)c(Cl)c3)c21
Data returned: 0

Data request: // next record CC(C)(C)OC(=O)NC1CCCN(c2cc(-c3ccc4c(N)n[nH]c4c3)nc(N)n2)C1 (stereo not drawn)
Data returned: 0

Data request: // next record COc1cc2ncnc(Nc3ccc(OCc4ccccc4Br)c(Cl)c3)c2cc1OC.Cl
Data returned: 0

Data request: // next record CN1c2ccc(-c3ccc(C(=O)NCCO)cc3)cc2-c2[nH]ncc2S1(=O)=O
Data returned: 63

Data request: // next record O=c1cc(N2CCOCC2)nc2n(Cc3cccc(Cl)c3)ccn12
Data returned: 0

Data request: // next record CSc1nn2c(=O)cc(N3CCOCC3)nc2n1Cc1cccc(Cl)c1Cl
Data returned: 0

Data request: // next record FC(F)(F)c1ccc(-c2nn3ncccc3c2-c2ccnc(Nc3cccc(C(F)(F)F)c3)n2)cc1
Data returned: 0

Data request: // next record Clc1cccc(-c2nc(Nc3ccncc3)c3ccccc3n2)c1
Data returned: 0

====

System: TIE1
Conditions: concentration: 1 μM, replicates: in singlicate; n = 1
Kindly state %Inh for each of the entries shown.
Reply numerically in %, unit not repeated.

Data request: Could you share which %Inh value was measured for FC(F)(F)c1ccc(-c2cc(-c3c[nH]nc3-c3ccccn3)ccn2)cc1 ?
Data returned: 4

Data request: // next record NC(=O)c1sc(-n2cnc3ccccc32)cc1OCc1ccccc1F
Data returned: 2

Data request: // next record N#Cc1ccc(Oc2ccc(Nc3ncnc4cc[nH]c34)cc2Cl)cc1
Data returned: 0

Data request: // next record COc1ccc(NC(=O)Nc2ccc(C)c(-c3ccc(C(=O)Nc4ccncc4)cc3)c2)cc1
Data returned: 0

Data request: // next record Nc1nc(-c2ccccn2)c(-c2ccnc3ccccc23)s1
Data returned: 0

Data request: // next record OCCOCCn1ccc2ncnc(Nc3ccc(Oc4cccc(Cl)c4)c(Cl)c3)c21
Data returned: 0

Data request: // next record CNc1nccc(-c2c(-c3ccc(F)cc3)ncn2CCCN2CCOCC2)n1
Data returned: 0

====

Test system: CSNK2A2
Conditions: concentration: 1 μM, replicates: in singlicate; n = 1
measuredProperty: %Inh (%)
Reply numerically in %, unit not repeated.

Data request: What measured %Inh is associated with Cn1ccc2ncnc(Nc3ccc(Oc4cccc(Cl)c4)c(Cl)c3)c21 on CSNK2A2?
Data returned: 39

Data request: // next record COC(=O)c1cccc(NC(=O)NCCNc2ccnc(Nc3ccc(F)cc3)n2)c1 [GSK1379883]
Data returned: 23

Data request: // next record C[C@H]1CC[C@@H](C(=O)Nc2ccccc2)CN1c1cc(-c2ccc3c(N)n[nH]c3c2)nc(N)n1 [GSK2283293]
Data returned: 0

Data request: // next record Cc1cccc(-c2nc(Nc3ccc4[nH]nnc4c3)c3ccccc3n2)n1 [GW867587]
Data returned: 45

====

Tested on: BMPR1A
Conditions: concentration: 1 μM, replicates: in singlicate; n = 1
measuredProperty: %Inh (%)
Reply numerically in %, unit not repeated.

Data request: Could you share which %Inh value was measured for CN1CCC(n2cnc(-c3ccc(F)cc3)c2-c2ccnc(NC3CCNCC3)n2)CC1 ?
Data returned: 6

Data request: // next record Nc1nc(-c2ccccn2)c(-c2ccnc3ccccc23)s1
Data returned: 0

Data request: // next record Nc1nc(-c2cccnc2)c(-c2ccnc3ccccc23)s1
Data returned: 0

Data request: // next record FC(F)(F)c1cc(Nc2nccc(-c3c(-c4ccc(Cl)cc4)nn4ncccc34)n2)ccc1Cl
Data returned: 0

Data request: // next record Cl.O=S(=O)(c1cccc(F)c1)c1ccc(Nc2ncnc3cc(Br)sc23)cc1Cl
Data returned: 0
